- TESTED_SYSTEM: 11β-HSD1 Dehydrogenase (Rattus norvegicus, UniProt P16232)
- Sequence (P16232 whole entry): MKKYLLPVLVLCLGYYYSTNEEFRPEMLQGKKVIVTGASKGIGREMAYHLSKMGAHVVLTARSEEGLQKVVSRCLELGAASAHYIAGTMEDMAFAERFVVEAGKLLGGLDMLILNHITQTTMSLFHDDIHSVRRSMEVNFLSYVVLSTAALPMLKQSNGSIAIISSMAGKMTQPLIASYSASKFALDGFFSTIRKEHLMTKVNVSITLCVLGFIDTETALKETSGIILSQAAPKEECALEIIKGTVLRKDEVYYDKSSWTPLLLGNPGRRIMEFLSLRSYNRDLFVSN
- PROCEDURE_DETAILS: Table 1: inhibition of 11β-HSD1 dehydrogenase
- Type: biochemical
- MEASUREMENT_PARAMETERS: Table 1, inhibition in words
ENDPOINT_NAME: 11β-HSD1 Dehydrogenase

Solved entries (count: 5):
MOLECULE	11β-HSD1 Dehydrogenase
C[C@]12CC[C@@H](O)C[C@H]1CC[C@@H]1[C@H]2[C@@H](O)C[C@]2(C)[C@@H](C(=O)CO)CC[C@@H]12	Potent Inhibitor
C[C@]12CC[C@@H](O)C[C@H]1CC[C@@H]1[C@H]2C(=O)C[C@]2(C)C(=O)CC[C@@H]12	No Inhibition
C[C@]12CC[C@@H](O)C[C@H]1CC[C@@H]1[C@H]2[C@@H](O)C[C@]2(C)C(=O)CC[C@H]12	Moderate Inhibitor
CC(=O)[C@H]1CC[C@@H]2[C@@H]3CCC4=CC(=O)CC[C@]4(C)[C@@H]3C(=O)C[C@]12C (stereo in doubt)	No Inhibition
C[C@]12CC(=O)[C@@H]3[C@@H](CCC4=CC(=O)CC[C@@]43C)[C@H]1CC[C@@H]2O	No Inhibition

Would you mind giving 11β-HSD1 Dehydrogenase for every molecule in the list below?
1. C[C@]12CC[C@@H](O)C[C@H]1CC[C@@H]1[C@H]2[C@@H](O)C[C@]2(C=O)[C@@H](C(=O)CO)CC[C@@H]12
2. C[C@]12CC[C@@H](O)C[C@H]1CC[C@@H]1[C@H]2C(=O)C[C@]2(C)[C@@H](O)CC[C@@H]12
3. C[C@]12CCC(=O)C[C@H]1CC[C@@H]1[C@H]2[C@@H](O)C[C@]2(C)[C@@H](C(=O)CO)CC[C@@H]12

Ans.
1. Moderate Inhibitor
2. No Inhibition
3. Potent Inhibitor
